# TESTED TARGET: RUNX1 (UniProt Q01196)
# Sequence (Q01196 whole entry): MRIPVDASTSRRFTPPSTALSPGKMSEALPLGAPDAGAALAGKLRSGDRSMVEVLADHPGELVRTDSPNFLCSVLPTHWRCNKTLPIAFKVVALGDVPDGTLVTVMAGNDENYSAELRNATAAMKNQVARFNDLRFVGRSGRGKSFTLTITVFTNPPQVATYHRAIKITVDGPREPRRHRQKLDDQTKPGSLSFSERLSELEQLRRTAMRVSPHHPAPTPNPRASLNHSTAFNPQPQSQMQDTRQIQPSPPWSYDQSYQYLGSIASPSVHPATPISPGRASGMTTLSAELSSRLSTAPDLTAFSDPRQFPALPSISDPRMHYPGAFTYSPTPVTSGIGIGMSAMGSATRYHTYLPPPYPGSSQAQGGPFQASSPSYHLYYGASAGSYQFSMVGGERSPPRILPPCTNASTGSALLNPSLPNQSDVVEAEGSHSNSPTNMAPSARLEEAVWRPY
# EXPERIMENT SUMMARY: RUNX1 binding intensity (PBM fluorescence), RUNX1 alone (arbitrary fluorescence units); higher = stronger binding;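 note: Full-length recombinant human RUNX1 bound to double-stranded 36-bp genomic probes on a high-density microarray, scored as Alexa488 fluorescence per spot via anti-RUNX1 antibody, median of four replicate spots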
# CONDITION SUMMARY: RUNX1 concentration 2 nM; ETS1 concentration 0 nM
Use 900 as the dividing line for RUNX1 binding intensity, with the line itself on the fulfilled side and lower values as not fulfilled.

>  <RESIDUE STRING>
CCCTGGACGGGAAGCGGCGGCCAGATCCGCAAGCCC

>  <CLASS LABEL>
not fulfilled

$$$$
>  <RESIDUE STRING>
AGAGCCACATCCCGCGCAGAGGACCGCGGCGACCGG

>  <CLASS LABEL>
not fulfilled

$$$$
>  <RESIDUE STRING>
CAGCTGACAGGAAGGAGAGAACCACAGACAGTGCGA

>  <CLASS LABEL>
not fulfilled

$$$$
>  <RESIDUE STRING>
TCATTCTCTGATAAAGGAAGTGGTTACAGCACAATT

>  <CLASS LABEL>
not fulfilled

$$$$
>  <RESIDUE STRING>
ATACTGAGTCATTTCCTGTGGTGTTATTGTGTTGTA

>  <CLASS LABEL>
fulfilled

$$$$
>  <RESIDUE STRING>
AGCAACAACAAAGGAAGTGGCGGCCGCAGGGGGAGG

>  <CLASS LABEL>
not fulfilled

$$$$
>  <RESIDUE STRING>
AGGTACCAGGCCCGGAAACCACGGAAAGGGGAACTT

>  <CLASS LABEL>
not fulfilled

$$$$
>  <RESIDUE STRING>
CTAAACCGGAAGCCGCCCCTCTGACCGCTCTAAAAC

>  <CLASS LABEL>
fulfilled

$$$$
>  <RESIDUE STRING>
AGCTTGACGAAGGCTTCCTGTGGTTTGGGTTGATGT

>  <CLASS LABEL>
not fulfilled

$$$$
>  <RESIDUE STRING>
GCCTCCTCAGGAAATTGCCCAAAATAGCCACATGTC

>  <CLASS LABEL>
fulfilled

$$$$
>  <RESIDUE STRING>
TTACAATCATTTCCTCTCTGTGGTTTGGTGACAAAT

>  <CLASS LABEL>
fulfilled

$$$$
>  <RESIDUE STRING>
CCAATGGGCAGGCGGAAACCGCGGGCTCGTGCTCCC

>  <CLASS LABEL>
fulfilled

$$$$
>  <RESIDUE STRING>
GGACGCTTCCGGTGGAAGGGAGCTGTTGCGGGGCTT

>  <CLASS LABEL>
not fulfilled

$$$$
>  <RESIDUE STRING>
GAAGTCACATCCTGTCTGTTGCGGCAGGGCACAGAG

>  <CLASS LABEL>
not fulfilled

$$$$
>  <RESIDUE STRING>
GCCTCCTTCCTGGGCTCCTTTAAGAGGGTGGTAACG

>  <CLASS LABEL>
not fulfilled

$$$$
>  <RESIDUE STRING>
GAGGCCGAAAGGAAGTTTGAGGTTAAGCACAAGATG

>  <CLASS LABEL>
not fulfilled

$$$$
>  <RESIDUE STRING>
TAAGTGAATTTCCTGCCCGCCTCCGCCCACAGCGTA

>  <CLASS LABEL>
not fulfilled

$$$$
>  <RESIDUE STRING>
ACCAGAACTAAAGCGGATAGCGGTTAGAAACGCCCA

>  <CLASS LABEL>
not fulfilled

$$$$
>  <RESIDUE STRING>
CAAGCTGGCAGGAAGCGCGGTGCAACCACAAGAGTC

>  <CLASS LABEL>
not fulfilled

$$$$
>  <RESIDUE STRING>
AGCGTTGTCTTCCGGCCTCAACCACTCAGCGACCGG

>  <CLASS LABEL>
not fulfilled

$$$$
>  <RESIDUE STRING>
GACCAGGAAACGGGGCGTGGCGGCCGCCGTGGTTAC

>  <CLASS LABEL>
not fulfilled

$$$$
>  <RESIDUE STRING>
TGGAGAGCACAGGAAGTGGCCCACAGCCCAGGCCAA

>  <CLASS LABEL>
not fulfilled

$$$$
>  <RESIDUE STRING>
TTCAGTCCTGGTTTCCTGTGGTTCTAGGATCTTTAT

>  <CLASS LABEL>
not fulfilled

$$$$
>  <RESIDUE STRING>
ACCCAGGAGGCGGAAGTTGTGGTGAGCCGAGATCGC

>  <CLASS LABEL>
not fulfilled

$$$$
